Values were extracted from ChEMBL document CHEMBL4373715.

# method_summary: Protein binding in human plasma assessed as unbound fraction at 1 mM measured immediately by LC-MS/MS analysis
# Assay type: ADME, cell-free
metric: fraction unbound at 0 h

Oc1ccc(-c2cc(-c3ccccc3Cl)nc3c2Cc2c(O)cccc2-3)cc1
1

====

# measurement_target: DNA topoisomerase 2-alpha (Homo sapiens) (UniProt P11388)
# Sequence (P11388 whole entry): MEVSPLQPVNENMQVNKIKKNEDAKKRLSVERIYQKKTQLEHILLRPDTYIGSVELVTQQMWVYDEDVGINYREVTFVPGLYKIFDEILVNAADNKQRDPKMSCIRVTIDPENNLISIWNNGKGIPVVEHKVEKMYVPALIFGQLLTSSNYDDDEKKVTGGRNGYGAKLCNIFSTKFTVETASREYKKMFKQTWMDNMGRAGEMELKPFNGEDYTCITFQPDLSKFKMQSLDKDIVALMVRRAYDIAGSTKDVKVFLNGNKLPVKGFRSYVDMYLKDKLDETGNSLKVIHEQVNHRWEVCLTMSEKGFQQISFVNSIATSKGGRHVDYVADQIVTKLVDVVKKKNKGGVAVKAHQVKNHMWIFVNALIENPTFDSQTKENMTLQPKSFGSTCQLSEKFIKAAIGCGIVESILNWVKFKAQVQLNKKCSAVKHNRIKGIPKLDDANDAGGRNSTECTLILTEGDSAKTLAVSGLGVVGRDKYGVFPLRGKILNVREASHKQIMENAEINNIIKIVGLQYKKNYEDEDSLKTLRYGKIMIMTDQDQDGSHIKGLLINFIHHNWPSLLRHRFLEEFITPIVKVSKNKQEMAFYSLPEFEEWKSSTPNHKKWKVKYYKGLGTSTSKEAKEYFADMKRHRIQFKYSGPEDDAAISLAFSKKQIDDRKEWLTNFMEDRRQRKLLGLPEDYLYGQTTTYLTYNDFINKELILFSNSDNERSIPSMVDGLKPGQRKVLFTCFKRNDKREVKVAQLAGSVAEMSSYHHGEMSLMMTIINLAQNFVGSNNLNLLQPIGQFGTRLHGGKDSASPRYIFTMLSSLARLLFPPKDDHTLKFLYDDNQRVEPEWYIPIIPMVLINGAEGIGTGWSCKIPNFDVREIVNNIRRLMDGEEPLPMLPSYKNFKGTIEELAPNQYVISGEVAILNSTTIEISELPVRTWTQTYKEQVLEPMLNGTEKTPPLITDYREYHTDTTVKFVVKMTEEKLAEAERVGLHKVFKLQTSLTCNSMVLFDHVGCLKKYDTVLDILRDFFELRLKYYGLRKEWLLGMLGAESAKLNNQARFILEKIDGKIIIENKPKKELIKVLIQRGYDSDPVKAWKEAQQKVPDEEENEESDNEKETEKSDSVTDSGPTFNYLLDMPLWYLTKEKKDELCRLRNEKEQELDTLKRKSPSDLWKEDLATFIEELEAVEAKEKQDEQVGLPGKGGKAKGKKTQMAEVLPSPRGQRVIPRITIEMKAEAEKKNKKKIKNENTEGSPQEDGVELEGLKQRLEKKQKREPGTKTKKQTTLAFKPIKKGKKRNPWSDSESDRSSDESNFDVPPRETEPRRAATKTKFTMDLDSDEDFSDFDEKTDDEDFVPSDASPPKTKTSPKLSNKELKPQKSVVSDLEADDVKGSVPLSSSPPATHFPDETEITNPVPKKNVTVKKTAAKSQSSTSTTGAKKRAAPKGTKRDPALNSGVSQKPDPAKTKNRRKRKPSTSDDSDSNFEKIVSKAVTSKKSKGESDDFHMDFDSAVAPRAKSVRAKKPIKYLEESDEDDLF
# method_summary: Inhibition of recombinant human topoisomerase 2alpha-mediated relaxation of supercoiled pBR322 DNA at 20 uM measured after 30 mins by ethidium bromide staining based agarose gel electrophoresis relative to control
metric: inhibition (%)

Oc1ccc(-c2cc(-c3cccc(C(F)(F)F)c3)nc3c2Cc2ccc(O)cc2-3)cc1
11.1
Oc1ccccc1-c1cc(-c2ccccc2Cl)nc2c1Cc1c(O)cccc1-2
0
Oc1ccccc1-c1cc(-c2ccccc2C(F)(F)F)nc2c1Cc1cccc(O)c1-2
4
Oc1ccc(-c2cc(-c3ccc(C(F)(F)F)cc3)nc3c2Cc2ccc(O)cc2-3)cc1
0.5
Oc1cccc(-c2cc(-c3ccccc3Cl)nc3c2Cc2c(O)cccc2-3)c1
24.9
Oc1ccc(-c2cc(-c3cccc(Cl)c3)c3c(n2)-c2cc(O)ccc2C3)cc1
1.2
Oc1cccc(-c2cc(-c3ccccc3C(F)(F)F)nc3c2Cc2cccc(O)c2-3)c1
3.3
Oc1ccc(-c2cc(-c3cccc(Cl)c3)nc3c2Cc2cc(O)ccc2-3)cc1
31.9
Oc1cccc(-c2cc(-c3cccc(Cl)c3)nc3c2Cc2cc(O)ccc2-3)c1
37.8
Oc1ccccc1-c1cc(-c2ccc(C(F)(F)F)cc2)nc2c1Cc1c(O)cccc1-2
2.4
Oc1ccc(-c2cc(-c3ccc(Cl)cc3)nc3c2Cc2ccc(O)cc2-3)cc1
0
Oc1ccccc1-c1cc(-c2ccc(F)cc2)nc2c1Cc1cccc(O)c1-2
0
Oc1ccccc1-c1cc(-c2ccccc2)nc2c1Cc1c(O)cccc1-2
0
Oc1ccccc1-c1cc(-c2cccc(Cl)c2)c2c(n1)-c1c(O)cccc1C2
2.4
Oc1ccc2c(c1)-c1nc(-c3ccccc3)cc(-c3ccccc3O)c1C2
0
Oc1ccc(-c2cc(-c3cccc(C(F)(F)F)c3)nc3c2Cc2cc(O)ccc2-3)cc1
4.6
Oc1ccccc1-c1cc(-c2ccccc2C(F)(F)F)nc2c1Cc1c(O)cccc1-2
1.8
Oc1cccc(-c2cc(-c3cccc(Cl)c3)nc3c2Cc2cccc(O)c2-3)c1
3.4
Oc1cccc(-c2cc(-c3cccc(C(F)(F)F)c3)nc3c2Cc2cccc(O)c2-3)c1
0.7
Oc1cccc(-c2cc(-c3ccccc3Cl)c3c(n2)-c2cc(O)ccc2C3)c1
13.8
Oc1ccccc1-c1cc(-c2cccc(C(F)(F)F)c2)nc2c1Cc1c(O)cccc1-2
5.3
Oc1ccc(-c2cc(-c3ccccc3C(F)(F)F)nc3c2Cc2cc(O)ccc2-3)cc1
0
Oc1cccc2c1Cc1c(-c3ccccc3)cc(-c3ccccc3)nc1-2
1.3
Oc1ccc2c(c1)-c1nc(-c3ccccc3O)cc(-c3ccccc3Cl)c1C2
38.2
Oc1cccc(-c2cc(-c3cccc(C(F)(F)F)c3)nc3c2Cc2ccc(O)cc2-3)c1
10.5
Oc1cccc(-c2cc(-c3ccc(Cl)cc3)nc3c2Cc2c(O)cccc2-3)c1
42
Oc1ccc(-c2cc(-c3ccc(Cl)cc3)c3c(n2)-c2ccc(O)cc2C3)cc1
8.9
Oc1cccc(-c2cc(-c3cccc(C(F)(F)F)c3)nc3c2Cc2c(O)cccc2-3)c1
40.5
Oc1ccccc1-c1cc(-c2ccc(F)cc2)nc2c1Cc1c(O)cccc1-2
0
Oc1cccc(-c2cc(-c3ccccc3)nc3c2Cc2cc(O)ccc2-3)c1
0
Oc1ccccc1-c1cc(-c2ccc(Cl)cc2)c2c(n1)-c1cccc(O)c1C2
1.5
Oc1ccc(-c2cc(-c3ccccc3C(F)(F)F)nc3c2Cc2ccc(O)cc2-3)cc1
1.2
Oc1ccc2c(c1)Cc1c(-c3ccc(Cl)cc3)cc(-c3ccccc3O)nc1-2
0
Oc1ccc(-c2cc(-c3cccc(Cl)c3)nc3c2Cc2c(O)cccc2-3)cc1
36.9
Oc1ccc(-c2cc(-c3ccccc3Cl)nc3c2Cc2cc(O)ccc2-3)cc1
53.6
Oc1ccc(-c2cc(-c3ccc(C(F)(F)F)cc3)nc3c2Cc2cccc(O)c2-3)cc1
0
Oc1cccc(-c2cc(-c3ccc(F)cc3)nc3c2Cc2cc(O)ccc2-3)c1
28.7
Oc1ccc2c(c1)Cc1c(-c3ccccc3O)cc(-c3ccccc3)nc1-2
0
Oc1ccc(-c2cc(-c3ccc(Cl)cc3)c3c(n2)-c2c(O)cccc2C3)cc1
9.3
Oc1cccc(-c2cc(-c3ccc(Cl)cc3)c3c(n2)-c2ccc(O)cc2C3)c1
6.2
